System: CP250
protocol.notes: qHTS profiling for inhibitors of Plasmodium falciparum proliferation (AID 504749); further: nearly all actives have a fitted effect of over 60% in size
condition.set: P. falciparum in erythrocytes, SYBR Green DNA, 72 h; series mostly up to 28.7 µM
Inconclusive results are not listed. The source made the active and inactive calls. The call rests on the fitted dose curve; in most records, active means well fitted inhibition curve with a large enough effect; inconclusive means small, poorly fitted or top-dose-only effect; inactive means flat fitted curve, though single readings scatter.
Output constraint: value belongs to active, inactive

What outcome does the record of this test show for COc1cc(C(=O)OCCCN2CCCN(CCCOC(=O)c3cc(OC)c(OC)c(OC)c3)CC2)cc(OC)c1OC ?
active

// return assay outcome for CNC1(C)C2CCC(C2)C1(C)C (configuration not stated)
inactive

Returns: the outcome recorded for Cc1ccc(=O)n(-c2ccccc2)c1 in this assay.
inactive

Please state the recorded outcome for this compound: CN(C)CC/C=C1\c2ccccc2COc2ccccc21
inactive

Field: outcome | Entry: NC(=O)N1c2ccccc2C=Cc2ccccc21
inactive

Please let me know the test result on file for COc1ccc(CN(CCN(C)C)c2ccccn2)cc1 .
inactive

Outcome logged for CNCCC(Oc1ccccc1OC)c1ccccc1 (configuration not stated) in this assay:
inactive

---

System: CP192
protocol.notes: qHTS profiling for inhibitors of Plasmodium falciparum proliferation (AID 504749); further: nearly all actives have a fitted effect of over 60% in size; further: potency means the concentration at half of the fitted maximal effect
condition.set: P. falciparum in erythrocytes, SYBR Green DNA, 72 h; series mostly up to 28.7 µM
Results filed as inconclusive are left out. The source made the active and inactive calls. Calls follow the shape of the dose curve; as a rule, active = well fitted inhibition curve with a large enough effect; inconclusive = small, poorly fitted or top-dose-only effect; inactive = flat fitted curve, though single readings scatter.
property.name: Potency

smiles.repr	Potency
CCN(CC)CCOCCOC(=O)C1(c2ccccc2)CCCC1	inactive
Cc1nc2sccn2c(=O)c1CCN1CCC(=C(c2ccc(F)cc2)c2ccc(F)cc2)CC1	inactive
Cc1ccc(Cl)c(Nc2ccccc2C(=O)O)c1Cl	inactive
CCN(CC)CCNC(=O)c1ccc(NC(C)=O)cc1	inactive
NC/C=C/C(=O)O	inactive

Shift focus to the following entry.
// Input: CCCC(C(=O)OCCN(CC)CC)(c1ccccc1)c1ccccc1 . Output its Potency only.
9.53 µM (active)

---

Tested on: CP203
protocol.notes: qHTS profiling for inhibitors of Plasmodium falciparum proliferation (AID 504749); further: nearly all actives have a fitted effect of over 60% in size
condition.set: P. falciparum in erythrocytes, SYBR Green DNA, 72 h; series mostly up to 28.7 µM
Results filed as inconclusive are left out. Active and inactive are the calls of the source. Calls follow the shape of the dose curve; as a rule, active = well fitted inhibition curve with a large enough effect; inconclusive = small, poorly fitted or top-dose-only effect; inactive = flat fitted curve, though single readings scatter.
Please answer using one outcome listed in active, inactive

Kindly provide the recorded test outcome for the following compound: C[N+](C)(C)CCOC(N)=O
inactive

Called result for C[N+](C)(C)CCCCCCCCCC[N+](C)(C)C
active

State the result this test recorded for O=c1[nH]c(=O)n([C@H]2C[C@H](O)[C@@H](CO)O2)cc1Br .
inactive

What call does the record list for NC(=O)c1ncn([C@@H]2O[C@H](CO)[C@@H](O)[C@H]2O)c1O ?
inactive

Returns: the outcome recorded for c1cnc(N2CCN(Cc3ccc4c(c3)OCO4)CC2)nc1 in this assay.
inactive

Assay result, entry Nc1ncn([C@@H]2O[C@H](CO)[C@@H](O)[C@H]2O)c(=O)n1 — outcome?
inactive

Per the records of this test, what outcome belongs to CCCCNc1c(C(=O)OCC)c(C)nc2c1cnn2CC ?
inactive

# lookup: test call for CC(C(=O)O)c1ccc(CC2CCCC2=O)cc1 (configuration not stated)
inactive

Write down the call the test reported for this compound. Item: CSc1ccc(C(=O)c2[nH]c(=O)[nH]c2C)cc1
inactive

Which outcome was entered for the compound CCCCCN(CCCCC)C(=O)C(CCC(=O)O)NC(=O)c1ccc(Cl)c(Cl)c1 (configuration not stated) in this test?
inactive

Called result for CN(C)CC/C=C1\c2ccccc2COc2ccccc21
active

Please let me know the test result on file for COC(=O)[C@@H](N)Cc1ccc(O)c(O)c1 .
inactive

---

protocol.notes: NFAT Signaling Pathway (AID 444);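 further: carbachol stimulus at about its EC50 of 1 µM final; on the % scale 0 is the no-effect control and ±100 the full control effect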
condition.set: Jurkat NFAT-bla M1, carbachol, beta-lactamase ratio, 5 h; at 38 µM (top of the series)
Results filed as inconclusive are left out. Active and inactive are the calls of the source. Calls follow the shape of the dose curve; as a rule, active = well fitted curve in either direction with a large enough effect (not every such curve was filed as active); inconclusive = small, poorly fitted or top-dose-only effect, or another doubt; inactive = flat fitted curve, though single readings scatter.
Kindly supply the reported activity change, negative = inhibition values for the records listed here.

Determine from records and report activity change, negative = inhibition for CCCOc1ccccc1-c1nc2n[nH]nc2c(=O)[nH]1
2.4% (inactive)

Let me know recorded activity change, negative = inhibition for Cc1ccc(=O)n(-c2ccccc2)c1 , thanks.
14.9% (inactive)

Recall and state the measured activity change, negative = inhibition for COc1ccc(CN(CCN(C)C)c2ccccn2)cc1 .
-21.9% (inactive)

Please report activity change, negative = inhibition for the following compound: Cc1scc2c1N(C(=O)CN1CCN(C)CC1)c1ccccc1NC2=O
-72.8% (active)

Given CC1=NS(=O)(=O)c2cc(Cl)ccc2N1 , respond with its activity change, negative = inhibition.
2.63% (inactive)

---

System: CP192
protocol.notes: qHTS profiling for inhibitors of Plasmodium falciparum proliferation (AID 504749); further: nearly all actives have a fitted effect of over 60% in size
condition.set: P. falciparum in erythrocytes, SYBR Green DNA, 72 h; series mostly up to 28.7 µM
Results filed as inconclusive are left out. The source made the active and inactive calls. The call rests on the fitted dose curve; in most records, active means well fitted inhibition curve with a large enough effect; inconclusive means small, poorly fitted or top-dose-only effect; inactive means flat fitted curve, though single readings scatter.
Pick one: active, inactive

Hi, sorry to bother you, what did the test record for c1cnc(N2CCN(Cc3ccc4c(c3)OCO4)CC2)nc1 ?
inactive

Tell me the assay call for O=C(O)CN(CCN(CC(=O)O)CC(=O)O)CCN(CC(=O)O)CC(=O)O please.
inactive

Per the records of this test, what outcome belongs to CN(C)CCCN1c2ccccc2Sc2ccc(C(F)(F)F)cc21 ?
inactive

Please let me know the test result on file for C[N+](C)(C)CCOC(N)=O .
inactive

Lab log entry: C[n+]1cc2c3c(ccc2c2ccc4cc5c(cc4c21)OCO5)OCO3 — outcome as called in the assay?
inactive

How did this test come out for O=C(O)CCCCCCCC(=O)O ?
inactive

Test call, this compound: CCN(CC)CC(=O)Nc1c(C)cccc1C
inactive

Per the assay record, what outcome was assigned to Cc1nnc(SCC2=C(C(=O)O)N3C(=O)[C@@H](NC(=O)Cn4cnnn4)[C@H]3SC2)s1 ?
inactive

Test call, this compound: CCn1cc(C(=O)O)c(=O)c2cc3c(cc21)OCO3
inactive

Check the results log: what was the call for Cc1ccc(=O)n(-c2ccccc2)c1 ?
inactive

Please state the recorded outcome for this compound: CN1CCN(CC(=O)N2c3ccccc3C(=O)Nc3cccnc32)CC1
inactive

Outcome? C[C@]12CCC(=O)C=C1CC[C@@H]1[C@@H]2CC[C@@]2(C)[C@H]1CC[C@]2(O)C(=O)CO
inactive

For this compound, state the assay outcome: CN=C(NC#N)NCCSCc1nc[nH]c1C
inactive

Entry OCCN1CCN(CC/C=C2/c3ccccc3Sc3ccc(C(F)(F)F)cc32)CC1 : call = ?
active

Answer briefly: the call reported for CCCCNC(=O)NS(=O)(=O)c1ccc(C)cc1 in this assay.
inactive

How did this test come out for Cc1scc2c1N(C(=O)CN1CCN(C)CC1)c1ccccc1NC2=O ?
inactive

Would you mind telling me which call this test gave Brc1c(NC2=NCCN2)ccc2nccnc12 ?
inactive

Hi team, can someone confirm the assay call for COc1ccc([C@@H]2Sc3ccccc3N(CCN(C)C)C(=O)[C@@H]2OC(C)=O)cc1 ?
inactive

---

Kindly supply the reported max response values for the records listed here.
protocol.notes: qHTS Assay for Lipid Storage Modulators (AID 1519)
condition.set: Drosophila S3 cells, BODIPY lipid droplet/cell ratio, laser cytometry; measured here: cell count channel max response; cells loaded with oleic acid
Results filed as inconclusive are left out.
Answer with a number only, understood to be in %.

Look up and report measured max response for this entry: CCOC(=O)C1=C(C)NC(C)=C(C(=O)OC)C1c1cccc([N+](=O)[O-])c1 (stereo not given)
-3.59

Answer with reported max response of COCCc1ccc(OCC(O)CNC(C)C)cc1 (stereo not given)
-17.2

Determine from records and report max response for c1cc(CN2CCCCC2)cc(OCCCNc2nc3ccccc3s2)c1
18.9

# return recorded max response for input CC(C)COCC(CN(Cc1ccccc1)c1ccccc1)N1CCCC1 (stereo not given)
20

Tell me measured max response for COc1cc(Cc2cnc(N)nc2N)cc(OC)c1OC please.
-1.95

Tell me max response reported for C[C@]12CCC(=O)C=C1CC[C@@H]1[C@@H]2CC[C@@]2(C)[C@H]1CC[C@]2(O)C(=O)CO
15.6

Tell me its max response given CCCCCCCC/C=C\CCCCCCCC(=O)NCc1ccc(O)c(OC)c1 as the entry.
15.7

Look up max response of NC/C=C/C(=O)O and report it.
5.6

// Input: CC(=O)Oc1cc(C(C)C)c(OCCN(C)C)cc1C . Output its max response only.
-9.94

---

tested.system: Muscarinic acetylcholine receptor M1 (Rattus norvegicus) (UniProt P08482)
Sequence (P08482 whole entry, looked up): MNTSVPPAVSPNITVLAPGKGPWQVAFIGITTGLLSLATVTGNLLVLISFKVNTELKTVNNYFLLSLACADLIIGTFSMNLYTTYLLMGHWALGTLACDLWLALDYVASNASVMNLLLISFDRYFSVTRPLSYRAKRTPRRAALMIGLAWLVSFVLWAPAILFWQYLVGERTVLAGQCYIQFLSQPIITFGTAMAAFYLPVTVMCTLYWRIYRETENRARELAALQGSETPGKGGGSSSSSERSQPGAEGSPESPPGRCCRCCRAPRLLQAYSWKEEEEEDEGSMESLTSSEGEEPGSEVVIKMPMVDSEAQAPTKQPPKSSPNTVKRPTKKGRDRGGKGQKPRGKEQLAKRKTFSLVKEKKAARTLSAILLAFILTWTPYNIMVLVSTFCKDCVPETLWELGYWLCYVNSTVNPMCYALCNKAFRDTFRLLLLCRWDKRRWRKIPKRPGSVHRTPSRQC
protocol.notes: qHTS Assay for Antagonists of Acetylcholine Muscarinic M1 Receptor: Measurement of IP-One Response (AID 944); further: nearly all actives have a fitted effect of over 75% in size
condition.set: CHO-M1 cells, IP-One HTRF, antagonist mode; series mostly up to 46.1 µM
Results filed as inconclusive are left out. The source made the active and inactive calls. The call rests on the fitted dose curve; in most records, active means well fitted inhibition curve with a large enough effect; inconclusive means small, poorly fitted or top-dose-only effect; inactive means no such curve, though single readings can be large or run the other way.
In this exercise, the only acceptable responses are active, inactive

Per the records of this test, what outcome belongs to CC(=O)Oc1cc(C(C)C)c(OCCN(C)C)cc1C ?
active

// outcome(item) with item = O=C(O)CCCCCCCC(=O)O
inactive

Just curious, what result did NC(N)=NC(=O)Cc1c(Cl)cccc1Cl get here?
inactive

Hi, sorry to bother you, what did the test record for FC(F)(F)c1ccccc1-n1ccnc1 ?
inactive

Assay outcome for CN(C)CCCN1c2ccccc2Sc2ccc(C(F)(F)F)cc21 : what was it?
active

What outcome does the record of this test show for O=C(O)CN(CCOCCOCCN(CC(=O)O)CC(=O)O)CC(=O)O ?
inactive

Give the logged outcome of this assay for the following compound: CCCCNC(=O)NS(=O)(=O)c1ccc(C)cc1
inactive

// return assay outcome for Cc1ccc(S(=O)(=O)NC(=O)NN2CCCCCC2)cc1
inactive

Fill in: this test's call for N[C@@H](COP(=O)(O)O)C(=O)O is ___
inactive

In this assay, the call recorded for CCNC(=O)N1CCN(CCCC(c2ccc(F)cc2)c2ccc(F)cc2)CC1 was what?
active

Status in this test for COc1cc(Cc2cnc(N)nc2N)cc(OC)c1OC ?
inactive

Per the assay record, what outcome was assigned to Cc1ccc(=O)n(-c2ccccc2)c1 ?
inactive

Could you check what this test reported for CN1CCN(C2=Nc3ccccc3Oc3ccc(Cl)cc32)CC1 ?
active

Hi, sorry to bother you, what did the test record for Cc1nc2ccccn2c(=O)c1CCN1CCC(C(=O)c2ccc(F)cc2)CC1 ?
active

Could you please tell me the result logged for Cc1nc2c([nH]1)c(=O)n(C)c(=O)n2Cc1ccco1 in this assay?
inactive

Recorded test outcome, item Cc1nc2sccn2c(=O)c1CCN1CCC(=C(c2ccc(F)cc2)c2ccc(F)cc2)CC1
active

Assay result, entry CN(C)CCOC(=O)COc1ccc(Cl)cc1 — outcome?
inactive

Assay result, entry CCn1cc(C(=O)O)c(=O)c2cc3c(cc21)OCO3 — outcome?
inactive

What did this assay record as the result for COc1cc(C(=O)OCCCN2CCCN(CCCOC(=O)c3cc(OC)c(OC)c(OC)c3)CC2)cc(OC)c1OC ?
active

What did the test return for CCCCNc1c(C(=O)OCC)c(C)nc2c1cnn2CC ?
inactive

# fetch the recorded call for c1cc(CN2CCCCC2)cc(OCCCNc2nc3ccccc3s2)c1 here
active

Could you kindly confirm the outcome this assay logged for C[n+]1cc2c3c(ccc2c2ccc4cc5c(cc4c21)OCO5)OCO3 ?
active

Which outcome was entered for the compound Nc1nc(N)c2nc(-c3ccccc3)c(N)nc2n1 in this test?
inactive

# lookup: test call for CN/C(=C\[N+](=O)[O-])NCCSCc1ccc(CN(C)C)o1
inactive
